Recorded values, source paper PMC3251867.

# protocolNotes: Entinostat plasma pharmacokinetics (LC-MS/MS, non-compartmental analysis)
# Type: in vivo, human
# statedConditions: human, plasma, po, 5 mg m^−2
recordedEndpoint: Cmax (ng/mL)
Provide only the numeric value, understood in ng/mL.

Request: Query: Cmax; subject: Nc1ccccc1NC(=O)c1ccc(CNC(=O)OCc2cccnc2)cc1 [entinostat]
Response: 109

---

# protocolNotes: Entinostat plasma pharmacokinetics (LC-MS/MS, non-compartmental analysis)
# Assay type: in vivo, human
# statedConditions: human, plasma, po, 5 mg m^−2; read-out: T1/2 (converted)
# Method: Pharmacokinetic studies were performed during the first 2 cycles of therapy. […] Blood samples were collected in heparinised tubes and were processed by centrifugation at 1000 g for 10 min. Plasma was stored at −20 °C until analysis. […] Quality control samples were assayed with each analytic run and were within 15% of the nominal concentration. […]
recordedEndpoint: half-life (h)
Provide only the numeric value, understood in h.

Request: Query: half-life; subject: "Nc1ccccc1NC(=O)c1ccc(CNC(=O)OCc2cccnc2)cc1"
Response: 77.3
